Numbers sourced from paper PMC4771985.

Target entity: ACE from rabbit lung (Oryctolagus cuniculus, UniProt P12822)
Construct: ACE from rabbit lung was purchased from Sigma Chemical Co; purchased Sigma Chemical Co. (St. Louis, MO, USA); host or cells: rabbit lung (tissue-derived)
Assay text: ACE inhibitory assay (Hip-His-Leu)
Format: biochemical
Test parameters: IC50 defined as absolute quantity of peptide to inhibit 50% of 1.0 U ACE; pre-incubated 37 °C 5 min; Hip-His-Leu 12.5 mM, 0.1 M sodium borate, 400 mM NaCl, pH 8.3, 37 °C, 1 h; hippuric acid absorbance at 228 nm; read-out: IC50 Value, ACE inhibitory activity of synthetic peptides
Ends that are not written are not given here.
Property label: IC50

State its IC50 for this substance: FEQDWAS [FEQDWAS] > 2.8 µM

###

This section presents molecules with their documented IC50 values.
Target entity: ACE from rabbit lung (Oryctolagus cuniculus, UniProt P12822)
Sequence (P12822 34-1310): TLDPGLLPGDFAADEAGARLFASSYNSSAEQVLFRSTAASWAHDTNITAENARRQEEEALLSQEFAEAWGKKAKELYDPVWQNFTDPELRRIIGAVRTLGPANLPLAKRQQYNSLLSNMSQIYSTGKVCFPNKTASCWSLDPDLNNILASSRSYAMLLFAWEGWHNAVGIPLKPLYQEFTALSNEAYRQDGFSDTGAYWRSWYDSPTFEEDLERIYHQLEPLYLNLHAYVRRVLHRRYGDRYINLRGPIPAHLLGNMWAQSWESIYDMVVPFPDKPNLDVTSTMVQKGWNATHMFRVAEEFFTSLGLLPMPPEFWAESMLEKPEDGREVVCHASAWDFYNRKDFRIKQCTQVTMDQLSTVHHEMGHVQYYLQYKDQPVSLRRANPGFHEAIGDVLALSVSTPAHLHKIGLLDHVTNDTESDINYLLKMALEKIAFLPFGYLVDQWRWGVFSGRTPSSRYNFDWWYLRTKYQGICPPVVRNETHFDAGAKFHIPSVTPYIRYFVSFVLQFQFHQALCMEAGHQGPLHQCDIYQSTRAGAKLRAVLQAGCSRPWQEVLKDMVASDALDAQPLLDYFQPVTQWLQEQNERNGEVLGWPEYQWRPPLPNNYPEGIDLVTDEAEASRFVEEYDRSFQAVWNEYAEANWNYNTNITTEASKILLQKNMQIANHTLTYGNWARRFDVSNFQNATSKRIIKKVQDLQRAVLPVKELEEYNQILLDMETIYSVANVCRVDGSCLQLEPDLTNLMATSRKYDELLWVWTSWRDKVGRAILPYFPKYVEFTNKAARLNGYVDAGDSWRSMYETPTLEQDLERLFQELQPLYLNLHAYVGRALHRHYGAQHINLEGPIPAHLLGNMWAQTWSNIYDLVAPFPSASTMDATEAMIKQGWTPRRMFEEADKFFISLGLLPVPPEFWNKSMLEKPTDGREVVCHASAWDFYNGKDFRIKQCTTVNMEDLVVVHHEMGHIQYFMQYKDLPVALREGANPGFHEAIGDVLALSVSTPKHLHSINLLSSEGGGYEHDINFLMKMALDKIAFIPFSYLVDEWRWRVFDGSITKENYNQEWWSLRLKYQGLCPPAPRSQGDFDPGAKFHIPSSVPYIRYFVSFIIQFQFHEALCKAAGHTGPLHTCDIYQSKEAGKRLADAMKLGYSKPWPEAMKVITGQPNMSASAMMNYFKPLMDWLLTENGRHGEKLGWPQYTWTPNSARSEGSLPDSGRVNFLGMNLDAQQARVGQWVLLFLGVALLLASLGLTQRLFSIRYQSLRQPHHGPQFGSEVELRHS
Peptide text beside a SMILES is read from it.
Expressed in nM, but write only the number.

Molecule: CC(C)C[C@H](N)C(=O)N[C@@H](CC(=O)O)C(=O)N[C@@H](Cc1ccc(O)cc1)C(=O)O [LDY] (H-Leu-Asp-Tyr-OH)
Property label: IC50
Quantitative readout: 6100

Give ACE from rabbit lung (Oryctolagus cuniculus, UniProt P12822) IC50 for the following molecule: CC(C)C[C@H](N)C(=O)N[C@@H](CCCNC(=N)N)C(=O)N[C@@H](Cc1ccc(O)cc1)C(=O)O [LRY] (H-Leu-Arg-Tyr-OH) 44

Give ACE from rabbit lung (Oryctolagus cuniculus, UniProt P12822) IC50 for the following molecule: CC(C)[C@H](N)C(=O)N[C@@H](Cc1ccc(O)cc1)C(=O)N[C@@H](CCCNC(=N)N)C(=O)N[C@H](C(=O)O)[C@@H](C)O [VYRT] (H-VYRT-OH) 140
